Target: T1, MERS-CoV spike protein on live MERS-CoV (EMC, KNIH-002, KNIH-016 and KNIH-042 strains) (MERS-CoV)
T1 chain: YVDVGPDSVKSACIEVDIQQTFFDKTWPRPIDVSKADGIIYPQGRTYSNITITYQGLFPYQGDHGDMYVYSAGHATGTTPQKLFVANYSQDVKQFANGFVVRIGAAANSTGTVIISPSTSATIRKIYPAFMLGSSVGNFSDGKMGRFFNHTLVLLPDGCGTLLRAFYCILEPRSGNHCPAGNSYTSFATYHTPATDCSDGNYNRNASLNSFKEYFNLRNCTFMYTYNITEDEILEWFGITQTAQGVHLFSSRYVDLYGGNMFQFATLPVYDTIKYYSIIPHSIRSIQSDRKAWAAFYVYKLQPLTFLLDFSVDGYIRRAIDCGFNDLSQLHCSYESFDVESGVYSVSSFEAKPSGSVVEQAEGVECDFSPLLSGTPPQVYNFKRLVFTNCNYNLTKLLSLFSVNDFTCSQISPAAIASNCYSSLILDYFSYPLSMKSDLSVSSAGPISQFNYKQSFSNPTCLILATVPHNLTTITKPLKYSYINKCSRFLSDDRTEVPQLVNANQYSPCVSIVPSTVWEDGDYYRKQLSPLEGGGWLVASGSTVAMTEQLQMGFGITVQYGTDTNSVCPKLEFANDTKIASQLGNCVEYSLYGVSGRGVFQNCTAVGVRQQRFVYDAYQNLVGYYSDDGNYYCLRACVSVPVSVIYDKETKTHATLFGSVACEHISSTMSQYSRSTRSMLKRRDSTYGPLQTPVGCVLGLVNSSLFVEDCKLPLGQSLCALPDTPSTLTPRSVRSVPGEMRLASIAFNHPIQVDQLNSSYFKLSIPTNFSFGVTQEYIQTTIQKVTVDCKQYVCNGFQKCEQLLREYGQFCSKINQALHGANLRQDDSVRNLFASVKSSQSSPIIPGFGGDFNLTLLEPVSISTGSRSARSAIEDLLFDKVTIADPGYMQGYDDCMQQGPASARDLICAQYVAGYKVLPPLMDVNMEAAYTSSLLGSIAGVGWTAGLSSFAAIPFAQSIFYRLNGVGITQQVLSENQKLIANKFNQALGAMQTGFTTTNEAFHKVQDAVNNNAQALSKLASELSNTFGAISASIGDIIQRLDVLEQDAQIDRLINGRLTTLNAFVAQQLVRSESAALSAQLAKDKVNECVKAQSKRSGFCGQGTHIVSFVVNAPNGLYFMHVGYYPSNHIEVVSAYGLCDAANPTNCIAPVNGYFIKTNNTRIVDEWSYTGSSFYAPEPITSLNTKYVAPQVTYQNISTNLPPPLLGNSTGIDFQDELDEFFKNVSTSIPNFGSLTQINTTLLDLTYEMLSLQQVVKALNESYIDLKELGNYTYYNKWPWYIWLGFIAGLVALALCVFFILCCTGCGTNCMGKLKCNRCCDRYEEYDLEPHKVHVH
Experiment: cell-based or functional assay
Set-up: unit not given beside the values
endpoint: ND50 (PRNT with MERS-CoV)
Please reply with the value in numeric form only.

In the examples that follow, each entry is paired with its recorded ND50 (PRNT with MERS-CoV).
90-E5 antibody (antibody, V domains shown) VH: QVQLVQSGAEVKKPGSSVKVSCKASGGTFSSYTINWVRQAPGQGLEWMGGIIPIFGTANYAQKFQGRVTITADASTSTAYMELSSLRSEDTAVYYCARVLLRSSSWFSSNWFDPWGQGTLVTVSS VL: QSVLTQPPSVSGAPGQRVTISCTGSSSNIGAGYDVHWYQQLPGTAPKVLIYGNSNRPSGVPDRFSGSKSDTSASLAITGLQAEDEADYYCQSYDSSLSVVFGGGTKLTVLG: 6.6
90-E6 antibody (antibody, V domains shown) VH: EVQLVESGGGLVQPGRSLRLSCAASGFTFDDHAMHWVRQAPGKGLEWVSGFSWNSGSIGYADSVKGRFTISRDNAKNSLYLQMNSLRAEDTALYYCAKDRRSDYYFYGMDVWGQGTTVTVSS VL: QSVLTQPPSVSAAPGQKVTISCSGSRSNIGNNYVSWYQQLPGTAPKLLIYDNNKRPSGIPDRFSGSKSGTSATLGITGLQTGDEADYYCGTWDSSLNAGVFGGGTKLTVLG: 0.68
90-A3 antibody (antibody, V domains shown) VH: QVQLVQSGAEVKKPGASVKVSCMTSGYTFTSYGISWVRQAPGQGLEWMGWISAYNGNTNYAQKLQGRVTMTTDTSTSTAYMELRSLRSDDTAVYYCARDRGAYWDCGGDCYLSAFDYWGQGTLVTVSS VL: QAVVTQPPSVSAAPGQKVTISCSGSSSNIGNNYVSWYQQLPGTAPKLLIYDNNKRPSGIPDRFSGSKSGTSATLGITGLQTGDEADYYCGTWDSSLSAVVFGGGTKLTVLG: 0.63

Query binder follows.
I am curious: what ND50 (PRNT with MERS-CoV) value has been reported for 90-A9 antibody (antibody, V domains shown) VH: QVQLVQSGAEVKKPGSSVKVSCKASGGTFSSFPISWVRQAPGQGLEWMGGIIPIFGAANYAQKFQGRVTITADESTSTAYMELSSLRSEDTAVYYCARNYEEIVVIPAIMNFGYWGQGTLVTVSS VL: EIVLTQSPGTLSLSPGERATLSCRASQSVASSYLAWYQQKPGQAPRLLIYGTSSRATGIPDRFSGSGSGADFTLTISRLEPEDFAVYYCQQYGTSPLTFGGGTKVEIK ?
0.58
